# test-description: protein stability index of a GFP-peptide fusion (yeast GPS) (PSI 1-4); higher = more stable; sorted into four equal gates, so the index is relative within each strain
# condition-set: doa10∆
observed-property: protein stability index
Just the number, please.

Any idea what its protein stability index is? The sequence is GYVIKVFNNGIVVLVPK [DIS3] 2.59

Any idea what its protein stability index is? The sequence is PRQLHNTHWGLVCPAET [RPB2] 1.6

Any idea what its protein stability index is? The sequence is EINNLIQLPASLAATYS [ARP9] 1.59

Any idea what its protein stability index is? The sequence is NYYSNKSNSTGNISSST [REC8] 2.79

Any idea what its protein stability index is? The sequence is DNSEYSRNGDFPRTRFE [RPN10] 3.13

Any idea what its protein stability index is? The sequence is TAASEARKHKLKTLVQG [RPS27A] 2.1

Any idea what its protein stability index is? The sequence is RQKNVIHRAARPTRPDK [RPL15A] 3.31

Any idea what its protein stability index is? The sequence is FEIDDEHRIRVFFDKRI [RPS6A] 1.88

Any idea what its protein stability index is? The sequence is SQLQPQPQPQPQQQQQH [YDL088C/ASM4] 2.79

Any idea what its protein stability index is? The sequence is DPKSPTKRSIAIVFEEI [YMR129W/POM152] 2.73

Any idea what its protein stability index is? The sequence is YPMMHQVRNQVFMLDTK [RGR1] 2.25

Any idea what its protein stability index is? The sequence is LDAKNKVFVPPKSKSLP [RPO31] 2.71

Any idea what its protein stability index is? The sequence is SASHFEQYTKKINSWDQ [YJL041W/NSP1] 2.8

Any idea what its protein stability index is? The sequence is GTGKSQSGSNSGNNSKK [ROX3] 3.37

Any idea what its protein stability index is? The sequence is FGELQFAFLNAMFFGNY [AAR2] 2.87

Any idea what its protein stability index is? The sequence is IFSQTTNSTYNPASATD [YJL039C/NUP192] 2.83

Any idea what its protein stability index is? The sequence is ETESSVSNNEANTPSIP [SWI3] 3.09

Any idea what its protein stability index is? The sequence is VYLTAVLEYLAAEILEL [HTA1] 2.47

Any idea what its protein stability index is? The sequence is SIISSKTSCVVEKRIGK [RGR1] 2.46

Any idea what its protein stability index is? The sequence is ITKEVTQVNILKENNAI [YIL149C/MLP2] 2.91

Any idea what its protein stability index is? The sequence is KVVTKKYCEIMGDNSQL [SNF2] 3.19

Any idea what its protein stability index is? The sequence is IDDANVTRKQEDARRNP [RPC37] 1.45
